The values you see were collected from patent US20250041179A1.

Hi there, I'd appreciate the recorded Relative cell counts 14 days for every entry that follows.
- System: P. aeruginosa
- assay: Preservative efficacy test (Ph. Eur., adjusted inoculum) in shampoo formulation
- Type: cell-based, Pseudomonas aeruginosa
- condition parameters: 14 days, substance alone 0.5% w/w
- Description: Preservative efficacy tests were performed according to the European Pharmacopoeia with adjusted inoculation numbers (10^6-10^7 cells of suitable bacteria or fungi). Material was tested in predesigned standardised cosmetic formulations either as oil-in-water anionic emulsion (Table 2), shampoo (Table 3), or wet wipe solution (Table 4). […]
Simply state the number, no unit and no words.

// query Which measured Relative cell counts 14 days value corresponds to CCCCCCCC(=O)OCCCO [3-Hydroxypropyl caprylate, 3-hydroxypropyl caprylate] ?
// result 0.0000

// query Try Cc1cc(CC(C)CC(C)(C)C)n(O)c(=O)c1.NCCO (stereo not shown) [Piroctone olamine, piroctone olamine, reference compound] next.
// result 0.0000

// query Try O=C(O)c1ccccc1O [Salicylic Acid, salicylic acid, reference compound] next.
// result 0.0000

// query Try O=C([O-])c1ccccc1.[Na+] [Sodium Benzoate, sodium benzoate] next.
// result 0.0000

###

- Test system: P. aeruginosa
- assay: Preservative efficacy test (Ph. Eur., adjusted inoculum) in shampoo formulation
- Format: cell-based, Pseudomonas aeruginosa
- condition parameters: 7 days, substance alone 0.5% w/w
Hi there, I'd appreciate the recorded Relative cell counts 7 days for every entry that follows.
Simply state the number, no unit and no words.

// query Which measured Relative cell counts 7 days value corresponds to Cc1cc(CC(C)CC(C)(C)C)n(O)c(=O)c1.NCCO (stereo not shown) [Piroctone olamine, piroctone olamine, reference compound] ?
// result 0.0000

// query Try O=C(O)c1ccccc1O [Salicylic Acid, salicylic acid, reference compound] next.
// result 0.0000

// query Try CCCCCCCC(=O)OCCCO [3-Hydroxypropyl caprylate, 3-hydroxypropyl caprylate] next.
// result 0.0002

// query Try O=C([O-])c1ccccc1.[Na+] [Sodium Benzoate, sodium benzoate] next.
// result 0.0000

###

- Test system: P. aeruginosa
- assay: Preservative efficacy test (Ph. Eur., adjusted inoculum) in shampoo formulation
- Assay type: cell-based, Pseudomonas aeruginosa
- condition parameters: 14 days, substance alone 0.5% w/w
- Protocol: Preservative efficacy tests were performed according to the European Pharmacopoeia with adjusted inoculation numbers (10^6-10^7 cells of suitable bacteria or fungi). Material was tested in predesigned standardised cosmetic formulations either as oil-in-water anionic emulsion (Table 2), shampoo (Table 3), or wet wipe solution (Table 4). […]
measured endpoint: Absolute cell counts 14 days

// query Which measured Absolute cell counts 14 days value corresponds to O=C([O-])c1ccccc1.[Na+] [Sodium Benzoate, sodium benzoate] ?
// result 1

// query Try CCCCCCCC(=O)OCCCO [3-Hydroxypropyl caprylate, 3-hydroxypropyl caprylate] next.
// result 1

// query Try O=C(O)c1ccccc1O [Salicylic Acid, salicylic acid, reference compound] next.
// result 1

// query Try Cc1cc(CC(C)CC(C)(C)C)n(O)c(=O)c1.NCCO (stereo not shown) [Piroctone olamine, piroctone olamine, reference compound] next.
// result 1
